Measured Property: solubility (mM)

| Compound Smiles | Measured Property | Result Unit | Result |
| --- | --- | --- | --- |
| O=C[C@@H]1C[C@@H]2[C@@H]3[C@H]1[C@@]1(Cl)C(Cl)(Cl)[C@]3(Cl)[C@@]3(Cl)[C@@H]2[C@]31Cl | solubility | mM | 6.3e-05 |
| O=C(OCCOc1ccc(Cl)cc1Cl)c1ccccc1 | solubility | mM | 0.154 |
| C=C1C[C@]23C[C@@]1(O)CC[C@H]2[C@@]12C=C[C@H](O)[C@@](C)(C(=O)O1)[C@H]2[C@@H]3C(=O)O | solubility | mM | 14.4 |
| Cc1[nH]c(=O)n(C(C)C)c(=O)c1Br | solubility | mM | 8.7 |

---

# Conditions: 22 °C

| Compound Smiles | solubility |
| --- | --- |
| CCSC(=O)N(CC)C1CCCCC1 | 395 µM |

---

# Conditions: 20 °C
Measured Property: solubility (mM)

| Compound | Result Unit | Result |
| --- | --- | --- |
| O=CNC(Nc1ccc(Cl)c(Cl)c1)C(Cl)(Cl)Cl (configuration not stated) | mM | 0.476 |
| CCOC(=O)Nc1cccc(OC(=O)Nc2ccccc2)c1 | mM | 0.0233 |
| Cc1ccc(NC(=O)N(C)C)cc1Cl | mM | 0.329 |
| COP(=S)(OC)SCC(=O)N(c1ccc(Cl)cc1)C(C)C | mM | 0.037 |
| CNC(=O)Oc1ccccc1C1OCCO1 | mM | 26.9 |
| CCSCCSP(=O)(OC)OC | mM | 14.3 |
| CC(C)OP(=O)(OC(C)C)SCc1ccccc1 | mM | 1.39 |
| C1CNCCN1.Cl.Cl | mM | 2580 |
| O=C1CCc2cccc3c2N1CC3 | mM | 23.1 |
| CC(Cl)(Cl)[N+](=O)[O-] | mM | 17.4 |
| CN(C)C(O)=Nc1ccc(-n2nc(C(C)(C)C)oc2=O)c(Cl)c1 | mM | 0.0472 |
| CN(C(=O)COc1nc2ccccc2s1)c1ccccc1 | mM | 0.0134 |
| [Br-].[Br-].c1cc[n+]2c(c1)-c1cccc[n+]1CC2 | mM | 2060 |
| CCOC(=O)NCCOc1ccc(Oc2ccccc2)cc1 | mM | 0.0199 |
| CCC1COC(Cn2cncn2)(c2ccc(Cl)cc2Cl)O1 (configuration not stated) | mM | 0.244 |
| CCCOC/C(=N\c1ccc(Cl)cc1C(F)(F)F)n1ccnc1 | mM | 36.1 |
| O=C(O)Cc1c[nH]c2ccccc12 | mM | 8.56 |
| C#CC(C)N(C(=O)CCl)c1ccccc1 (configuration not stated) | mM | 2.26 |
| CNC(=O)N(C)c1nnc(C(F)(F)F)s1 | mM | 8.74 |
| Cc1cc(N(C)C)nc(Cl)n1 | mM | 54.8 |
| O=S1(=O)OCC2C(CO1)C1(Cl)C(Cl)=C(Cl)C2(Cl)C1(Cl)Cl (configuration not stated) | mM | 0.00114 |
| CN(C)C(=O)SCCCCOc1ccccc1 | mM | 0.118 |
| C=CCN(CC=C)C(=O)C(Cl)Cl | mM | 24 |
| CNC(=S)[S-].[Na+] | mM | 5590 |
| O=[N+]([O-])c1ccc(O/N=C/c2cc(Br)c(O)c(Br)c2)c([N+](=O)[O-])c1 | mM | 0.000217 |
| COP(=S)(OC)Oc1ccc(Sc2ccc(OP(=S)(OC)OC)cc2)cc1 | mM | 0.000579 |
| N#C/C(=N\OCC1OCCO1)c1ccccc1 | mM | 0.0861 |

---

# Conditions: 25 °C

| Compound | solubility / µM |
| --- | --- |
| COC(=O)C(C)Oc1ccc(Oc2ncc(C(F)(F)F)cc2Cl)cc1 (stereo unspecified) | 24.8 |
| O=C(O)COc1cc(Cl)cc(Cl)c1 | 4350 |
| CNP(=O)(OC)Oc1ccc(C(C)(C)C)cc1Cl (stereo unspecified) | 686 |
| O=C(O)COc1nc(Cl)c(Cl)cc1Cl | 1720 |
| CC(C)=CCl | 11000 |
| CNC(=O)Oc1c(C(C)(C)C)cc(C)cc1C(C)(C)C | 25.2 |
| C=C(CC(Cl)(Cl)Cl)c1ccccc1 | 52.2 |
| FC(F)(F)c1nc2c(Cl)c(Cl)ccc2[nH]1 | 271 |
| CCCCc1c(C)nc(NCC)nc1OS(=O)(=O)N(C)C | 69.5 |
| CCCCS/C(=N\c1cccnc1)SCc1ccc(C(C)(C)C)cc1 | 2.68 |
| CC(O)COCc1c(Cl)ccc(Cl)c1Cl (stereo unspecified) | 271 |
| Cc1nc(C)c(Cl)c(O)c1Cl | 52.1 |
| CCN(CC)C(=O)CCl | 571000 |
| COC(=O)C1(O)c2ccccc2-c2ccc(Cl)cc21 (stereo unspecified) | 65.5 |
| O=C(O)c1cc(Cl)c(Cl)cc1Cl | 3590 |
| CCOC(=O)CN(C(=O)CCl)c1c(CC)cccc1CC | 337 |
| Cc1ccc(/N=C/N(C)/C=N/c2ccc(C)cc2C)c(C)c1 | 3.41 |
| COP(=S)(OC)Oc1ccc([N+](=O)[O-])c(C)c1 | 137 |
| CN(C)C(=O)Nc1cc(C(C)(C)C)on1 | 3740 |
| CCSC(=O)N(CC)CC | 20300 |
| CCOP(=S)(OCC)SCSP(=S)(OCC)OCC | 5.2 |

---

# Conditions: 23 °C
Measured Property: solubility (µM)

| Compound | Result |
| --- | --- |
| COC(=O)C(C)N(C(=O)c1ccccc1)c1ccc(F)c(Cl)c1 (stereo unspecified) | 85.7 |

---

# Conditions: pH 7.0; 25 °C

| Compound Smiles | solubility |
| --- | --- |
| Cn1cc(-c2ccccc2)c(=O)c(-c2cccc(C(F)(F)F)c2)c1 | 36.4 µM |

---

# Conditions: pH 3.0; 26 °C
Measured Property: solubility (µM)

| Compound Smiles | Measured Property | Result |
| --- | --- | --- |
| CCN(CC)c1nc(NC(C)C)nc(OC)n1 | solubility | 12.9 |

---

# Conditions: 26 °C

| Compound Smiles | Result Unit | solubility |
| --- | --- | --- |
| CCNc1nc(OC)nc(N(CC)CC)n1 | µM | 1000 |

---

# Conditions: 30 °C
Below: a set of entries, each annotated with reported solubility.
Measured Property: solubility (µM)

| Compound | Measured Property | Result |
| --- | --- | --- |
| CN1C(=O)[C@]23CC4=CC=C[C@H](O)[C@H]4N2C(=O)[C@@]1(CO)SS3 | solubility | 214 |
| CCC(C)N(C(=O)SCc1ccccc1)C(C)CC (configuration not stated) | solubility | 8.95 |
